- protocol: Tmax in Wistar rat at 5 mg/kg, po via gavage by LC-Ms/MS analysis
- Format: ADME, organism-based
- condition_description: in vivo
Overview of reported Tmax across a group of compounds:

>  <mol_smiles>
CCCn1c(Oc2ccc(F)c(F)c2)nc2nc(C3CCCC3)[nH]c2c1=O

>  <Tmax / min>
97.8

$$$$
>  <mol_smiles>
CCCn1c(-c2cccc(OC)c2)nc2nc(C3CCCC3)[nH]c2c1=O

>  <Tmax / min>
18

$$$$

---

- protocol: Ratio of drug level in Wistar rat brain to plasma at 5 mg/kg, po via gavage measured at 1 hr post dose by LC-Ms/MS analysis
- Format: ADME, organism-based
- condition_description: read-out: BPR

>  <mol_smiles>
CCCn1c(Oc2ccc(F)c(F)c2)nc2nc(C3CCCC3)[nH]c2c1=O

>  <Kp at 1 h>
0.05

$$$$
